Test system: Aβ16-30-specific T cells
Assay: Proliferation of Aβ16-30-specific T cells with alanine/glycine-substituted peptides
Type: cell-based, human
Settings: Peptide 10 μg/ml, 72 hr
# label = bin(measured T-cell proliferation, average cpm), where bins are category 1: < 20000 cpm; category 2: ≥ 20000 cpm and < 30000 cpm; category 3: ≥ 30000 cpm

Before answering, review these 10 worked examples.
{"Substance": "Lys 16 Ala: Aβ16-30 peptide with lysine-16 substituted by alanine (ALVFFAEDVGSNKGA; Amyloid-beta protein 42; UniProt P05067 687-701, looked up, variant K16A)", "Target": "Aβ16-30-specific T cells", "Assigned class": "category 3"}
{"Substance": "Val 18 Ala: Aβ16-30 peptide with Val 18 substituted by alanine (KLAFFAEDVGSNKGA; Amyloid-beta protein 42; UniProt P05067 687-701, looked up, variant V18A)", "Target": "Aβ16-30-specific T cells", "Assigned class": "category 2"}
{"Substance": "Gly 29 Ala: Aβ16-30 peptide with glycine-29 substituted by alanine (KLVFFAEDVGSNKAA; Amyloid-beta protein 42; UniProt P05067 687-701, looked up, variant G29A)", "Target": "Aβ16-30-specific T cells", "Assigned class": "category 1"}
{"Substance": "Asn 27 Ala: Aβ16-30 peptide with asparagine-27 substituted by alanine (KLVFFAEDVGSAKGA; Amyloid-beta protein 42; UniProt P05067 687-701, looked up, variant N27A)", "Target": "Aβ16-30-specific T cells", "Assigned class": "category 3"}
{"Substance": "Gly 25 Ala: Aβ16-30 peptide with Gly 25 substituted by alanine (KLVFFAEDVASNKGA; Amyloid-beta protein 42; UniProt P05067 687-701, looked up, variant G25A)", "Target": "Aβ16-30-specific T cells", "Assigned class": "category 2"}
{"Substance": "Aβ16-30: nested Aβ peptide, residues 16-30 (KLVFFAEDVGSNKGA; Amyloid-beta protein 42; UniProt P05067 687-701, looked up, fragment)", "Target": "Aβ16-30-specific T cells", "Assigned class": "category 1"}
{"Substance": "Asp 23 Ala: Aβ16-30 peptide with aspartic acid-23 substituted by alanine (KLVFFAEAVGSNKGA; Amyloid-beta protein 42; UniProt P05067 687-701, looked up, variant D23A)", "Target": "Aβ16-30-specific T cells", "Assigned class": "category 1"}
{"Substance": "Glu 22 Ala: Aβ16-30 peptide with glutamic acid-22 substituted by alanine (KLVFFAADVGSNKGA; Amyloid-beta protein 42; UniProt P05067 687-701, looked up, variant E22A)", "Target": "Aβ16-30-specific T cells", "Assigned class": "category 1"}
{"Substance": "Ala 30 Gly: Aβ16-30 peptide with alanine 30 changed to glycine (KLVFFAEDVGSNKGG; Amyloid-beta protein 42; UniProt P05067 687-701, looked up, variant A30G)", "Target": "Aβ16-30-specific T cells", "Assigned class": "category 1"}
{"Substance": "Leu 17 Ala: Aβ16-30 peptide with Leu 17 substituted by alanine (KAVFFAEDVGSNKGA; Amyloid-beta protein 42; UniProt P05067 687-701, looked up, variant L17A)", "Target": "Aβ16-30-specific T cells", "Assigned class": "category 2"}

QUERY: Which of the defined bands does the recorded T-cell proliferation, average cpm of Phe 19 Ala: Aβ16-30 peptide with phenylalanine-19 substituted by alanine (KLVAFAEDVGSNKGA; Amyloid-beta protein 42; UniProt P05067 687-701, looked up, variant F19A) sit within?
RESULT: category 1

QUERY: Which of the defined bands does the recorded T-cell proliferation, average cpm of Ala 21 Gly: Aβ16-30 peptide with alanine 21 changed to glycine (KLVFFGEDVGSNKGA; Amyloid-beta protein 42; UniProt P05067 687-701, looked up, variant A21G) sit within?
RESULT: category 3

QUERY: Which of the defined bands does the recorded T-cell proliferation, average cpm of Phe 20 Ala: Aβ16-30 peptide with phenylalanine-20 substituted by alanine (KLVFAAEDVGSNKGA; Amyloid-beta protein 42; UniProt P05067 687-701, looked up, variant F20A) sit within?
RESULT: category 1

QUERY: Which of the defined bands does the recorded T-cell proliferation, average cpm of Ser 26 Ala: Aβ16-30 peptide with serine-26 substituted by alanine (KLVFFAEDVGANKGA; Amyloid-beta protein 42; UniProt P05067 687-701, looked up, variant S26A) sit within?
RESULT: category 3
